Just for reference, patent US7396837B2 is where these values come from.

System: K-562
Test: SRB colorimetric cell growth inhibition assay, K-562
Assay type: cell-based
Settings: Homo sapiens, K562, read-out: LC50 K-562, K-562; LC=cell killing (cytotoxic effect)
Method: The finality of these assays is to interrupt the growth of an “in vitro” tumor cell culture by means a continued exhibition of the cells to the sample to be testing. A colorimetric type of assay, using sulforhodamine B (SRB) reaction has been adapted for a quantitative measurement of cell growth and viability (following the technique described by P. A. Skehan, et al., J. Natl. Cancer Inst. 1990, 82, 1107-1112). […] The values for mean +/− SD of data from triplicate wells are calculated. […]
The following compounds are listed with their measured CC50 values.
Write it as a number; the unit µM goes unstated.

Would you please look over these solved cases?
smilesRepr	assayedSystem	CC50 / µM
COc1cc(-c2c3n(c4c(=O)oc5cc(OC(=O)[C@@H](N)C(C)C)c(OC)cc5c24)CCc2cc(OC(=O)[C@@H](N)C(C)C)c(OC)cc2-3)ccc1OC(=O)[C@@H](N)C(C)C	K-562	7.53
COc1cc(-c2c3c4cc(OC)c(OC(=O)[C@H](N)C(C)C)cc4oc(=O)c3n3ccc4c(OC(=O)[C@H](N)C(C)C)c(OC)c(OC)cc4c23)ccc1OC(=O)[C@H](N)C(C)C	K-562	12.1
COc1cc(-c2c3n(c4c(=O)oc5cc(OC(=O)[C@H](CO)NC(=O)OC(C)(C)C)c(OC)cc5c24)CCc2c-3cc(OC)c(OC)c2OC(=O)[C@H](CO)NC(=O)OC(C)(C)C)ccc1OC(=O)[C@H](CO)NC(=O)OC(C)(C)C	K-562	6.87
COc1cc(-c2c3c4cc(OC)c(OC(=O)[C@@H](N)C(C)C)cc4oc(=O)c3n3ccc4c(OC(=O)[C@@H](N)C(C)C)c(OC)c(OC)cc4c23)ccc1OC(=O)[C@@H](N)C(C)C	K-562	4.82

For K-562, provide CC50 of COc1cc(-c2c3n(c4c(=O)oc5cc(OC(=O)[C@@H](N)CO)c(OC)cc5c24)CCc2c-3cc(OC)c(OC)c2OC(=O)[C@@H](N)CO)ccc1OC(=O)[C@@H](N)CO please. 7.27

Give the reported CC50 for COc1cc(-c2c3n(c4c(=O)oc5cc(OC(=O)[C@H](N)C(C)C)c(OC)cc5c24)CCc2cc(OC(=O)[C@H](N)C(C)C)c(OC)cc2-3)ccc1OC(=O)[C@H](N)C(C)C (system: K-562). 8.31

Query for K-562: what CC50 does the record show for COc1cc(-c2c3c4cc(OC)c(OC(=O)[C@@H](N)CCCCNC(=O)OCc5ccccc5)cc4oc(=O)c3n3ccc4c(OC(=O)[C@@H](N)CCCCNC(=O)OCc5ccccc5)c(OC)c(OC)cc4c23)ccc1OC(=O)[C@@H](N)CCCCNC(=O)OCc1ccccc1 ? 5.36
